- tested system: PTP1B (Homo sapiens, UniProt P18031)
- Sequence (P18031 whole entry): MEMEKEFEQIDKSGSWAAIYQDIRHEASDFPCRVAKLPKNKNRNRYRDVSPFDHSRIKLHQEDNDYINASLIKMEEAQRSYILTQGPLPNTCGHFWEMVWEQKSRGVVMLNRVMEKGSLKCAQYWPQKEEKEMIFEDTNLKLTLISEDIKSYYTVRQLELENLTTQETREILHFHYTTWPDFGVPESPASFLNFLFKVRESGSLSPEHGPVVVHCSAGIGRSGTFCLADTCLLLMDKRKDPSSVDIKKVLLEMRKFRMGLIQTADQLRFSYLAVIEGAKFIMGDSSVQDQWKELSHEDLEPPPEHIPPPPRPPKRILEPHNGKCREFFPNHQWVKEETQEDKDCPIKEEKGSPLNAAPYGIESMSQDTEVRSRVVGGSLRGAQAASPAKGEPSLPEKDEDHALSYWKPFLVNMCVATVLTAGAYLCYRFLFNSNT
- assay method text: Inhibition of protein tyrosine phosphatase (PTPs) assay, pNPP substrate: PTP1B
- Assay type: biochemical
- measurement setup: pNPP substrate, pH 6.5, 37°C 60 min, absorbance 405 nm, three independent experiments; read-out: IC50 PTP1B (converted)
Listed molecules paired with reported IC50
quantity name: IC50

molecule: Cc1cc(=O)c2c(C)cc(O)cc2o1 [Compound 17, 2,5-dimethyl-7-hydroxychromone]
tested system: PTP1B (Homo sapiens, UniProt P18031)
measured value: > 526 µM
--
molecule: COc1cc(O)c2c(c1)C1C[C@H](O)[C@@H](O)C[C@@]1(C)OC2=O (stereo partly drawn) [Compound 9, 3-epidihydroaltenuene A]
tested system: PTP1B (Homo sapiens, UniProt P18031)
measured value: 3.3 µM
--
molecule: Cc1cc(O)cc2oc(CO)cc(=O)c12
tested system: PTP1B (Homo sapiens, UniProt P18031)
measured value: > 485 µM
